Experiment: Dissolution, USP dissolution apparatus 2, 900 mL 0.0033 N hydrochloric acid, 30 rpm, 37° C.
Assay type: physicochemical
Conditions: basic and amphoteric drugs in formulations according to the invention (Table 32); 15 minutes; 30 rpm
Experimental: Testing was conducted in a dissolution medium containing 900 mL 0.0033 N hydrochloric acid (HCl) at 37° C. which discriminates better between fast dissolving formulations than more acidic dissolution media where the effect of high acid concentration tends to mask formulation effects on dissolution. […] Unless otherwise stated, drug concentrations were measured using a Varian Cary 50 UV-Vis Spectrophotometer set at an appropriate wavelength using flow through cells for automatic continuous sampling. […]
Where a name gives a salt, the structure may show the parent alone.
Each item that follows carries a reported % dissolved in 900 mL 0.0033 N HCl.
Report the figure in % without appending any unit label.

>  <COMPOUND>
CN(C)CCc1c[nH]c2ccc(Cn3cncn3)cc12 [Rizatriptan benzoate]

>  <MEASUREMENT KIND>
% dissolved in 900 mL 0.0033 N HCl

>  <MEASUREMENT>
96

$$$$
>  <COMPOUND>
CCN(CC)CCNC(=O)c1cc(Cl)c(N)cc1OC [Metoclopramide hydrochloride]

>  <MEASUREMENT KIND>
% dissolved in 900 mL 0.0033 N HCl

>  <MEASUREMENT>
97

$$$$
>  <COMPOUND>
CN(C)C(=O)C(CCN1CCC(O)(c2ccc(Cl)cc2)CC1)(c1ccccc1)c1ccccc1 [Loperamide hydrochloride]

>  <MEASUREMENT KIND>
% dissolved in 900 mL 0.0033 N HCl

>  <MEASUREMENT>
89

$$$$
>  <COMPOUND>
CN(C)CCc1c[nH]c2ccc(C[C@H]3COC(=O)N3)cc12

>  <MEASUREMENT KIND>
% dissolved in 900 mL 0.0033 N HCl

>  <MEASUREMENT>
86

$$$$
>  <COMPOUND>
COc1cccc(C2(O)CCCCC2CN(C)C)c1 (stereo not shown) [Tramadol hydrochloride]

>  <MEASUREMENT KIND>
% dissolved in 900 mL 0.0033 N HCl

>  <MEASUREMENT>
100

$$$$

With those in mind, consider the next compound.
GET /value?item= Cc1nccn1CC1CCc2c(c3ccccc3n2C)C1=O (stereo not shown) [Ondansetron hydrochloride] &field=% dissolved in 900 mL 0.0033 N HCl returns 100

----------
Each item that follows carries a reported % dissolved in 900 mL 0.0033 N HCl.
assay: Dissolution, USP dissolution apparatus 2, 900 mL 0.0033 N hydrochloric acid, 0 rpm, 37° C.; type: physicochemical; conditions: basic and amphoteric drugs in formulations according to the invention (Table 32); 15 minutes; 0 rpm
Counter-ions that a name gives are not always drawn.
Report the figure in % without appending any unit label.

Please review the following examples before continuing.
>  <COMPOUND>
Cc1nnc2n1-c1ccc(Cl)cc1C(c1ccccc1)=NC2 [Alprazolam]

>  <RESULT UNIT>
%

>  <MEASUREMENT>
45

$$$$
>  <COMPOUND>
CN(C)C(=O)C(CCN1CCC(O)(c2ccc(Cl)cc2)CC1)(c1ccccc1)c1ccccc1 [Loperamide hydrochloride]

>  <RESULT UNIT>
%

>  <MEASUREMENT>
87

$$$$
>  <COMPOUND>
Cc1ccc(-c2nc3ccc(C)cn3c2CC(=O)N(C)C)cc1 [Zolpidem tartrate]

>  <RESULT UNIT>
%

>  <MEASUREMENT>
94

$$$$
>  <COMPOUND>
CN(C)CCc1c[nH]c2ccc(C[C@H]3COC(=O)N3)cc12 [Zolmitriptan]

>  <RESULT UNIT>
%

>  <MEASUREMENT>
88

$$$$
>  <COMPOUND>
COc1cccc(C2(O)CCCCC2CN(C)C)c1 (stereo not shown) [Tramadol hydrochloride]

>  <RESULT UNIT>
%

>  <MEASUREMENT>
99

$$$$

GET /value?item= CN1CCC[C@@H]1Cc1c[nH]c2ccc(CCS(=O)(=O)c3ccccc3)cc12 [Eletriptan hydrochloride, Eletriptan hydrobromide] &field=% dissolved in 900 mL 0.0033 N HCl returns 98

GET /value?item= CN(C)CCc1c[nH]c2ccc(Cn3cncn3)cc12 [Rizatriptan benzoate] &field=% dissolved in 900 mL 0.0033 N HCl returns 100

GET /value?item= O=C1Nc2ccc(Cl)cc2C(c2ccccc2Cl)=NC1O (stereo not shown) [Lorazepam] &field=% dissolved in 900 mL 0.0033 N HCl returns 95

GET /value?item= Cc1nccn1CC1CCc2c(c3ccccc3n2C)C1=O (stereo not shown) [Ondansetron hydrochloride] &field=% dissolved in 900 mL 0.0033 N HCl returns 79

GET /value?item= CCN(CC)CCNC(=O)c1cc(Cl)c(N)cc1OC [Metoclopramide hydrochloride] &field=% dissolved in 900 mL 0.0033 N HCl returns 86

----------
experiment: Effect of different alkaline agents on paracetamol absorption in vivo (5 subject crossover studies, plasma paracetamol); settings: human, oral, 1000 mg, two tablets each 500 mg paracetamol, fasted, Sodium bicarbonate, dose 200 mg, read-out: Median AUC20 (converted)
MEASUREMENT KIND: AUC (ng·h/mL)
Report the figure in ng·h/mL without appending any unit label.

GET /value?item= CC(=O)Nc1ccc(O)cc1 [Paracetamol] &field=AUC returns 3810

----------
assay: Dissolution, USP dissolution apparatus 2, 900 mL 0.0033 N hydrochloric acid, 0 rpm, 37° C.; type: physicochemical; conditions: pH modulating agent: Bicarbonate; 15 min (Table 33)
Where a name gives a salt, the structure may show the parent alone.
MEASUREMENT KIND: % drug dissolved in 900 mL 0.0033 N HCl at 0 rpm (%)
Report the figure in % without appending any unit label.

Please review the following examples before continuing.
>  <COMPOUND>
O=C1Nc2ccc(Cl)cc2C(c2ccccc2Cl)=NC1O (stereo not shown)

>  <MEASUREMENT>
6

$$$$
>  <COMPOUND>
CCN(CC)CCNC(=O)c1cc(Cl)c(N)cc1OC [Metoclopramide hydrochloride]

>  <MEASUREMENT>
28

$$$$
>  <COMPOUND>
Cc1nnc2n1-c1ccc(Cl)cc1C(c1ccccc1)=NC2

>  <MEASUREMENT>
4

$$$$

With those in mind, consider the next compound.
GET /value?item= CN(C)C(=O)C(CCN1CCC(O)(c2ccc(Cl)cc2)CC1)(c1ccccc1)c1ccccc1 [Loperamide hydrochloride] &field=% drug dissolved in 900 mL 0.0033 N HCl at 0 rpm returns 43

----------
assay: Effect of different alkaline agents on paracetamol absorption in vivo (5 subject crossover studies, plasma paracetamol); details: human, oral, 1000 mg, two tablets each 500 mg paracetamol, fasted, Sodium bicarbonate, dose 400 mg, read-out: Median AUC20 (converted)
MEASUREMENT KIND: AUC (ng·h/mL)
Report the figure in ng·h/mL without appending any unit label.

GET /value?item= CC(=O)Nc1ccc(O)cc1 &field=AUC returns 4760

----------
experiment: Solubility in water
MEASUREMENT KIND: Effect of ↑ pH on solubility

>  <COMPOUND>
CC(C)Cc1ccc(C(C)C(=O)O)cc1 (stereo not drawn) [Ibuprofen]

>  <Effect of ↑ pH on solubility>
↑

$$$$
>  <COMPOUND>
Cc1ccc(-c2cc(C(F)(F)F)nn2-c2ccc(S(N)(=O)=O)cc2)cc1 [Celecoxib]

>  <Effect of ↑ pH on solubility>
⇄

$$$$
>  <COMPOUND>
Cc1ccc(C)c(OCCCC(C)(C)C(=O)O)c1 [Gemfibrozil]

>  <Effect of ↑ pH on solubility>
↑

$$$$
>  <COMPOUND>
O=C(O)Cc1ccccc1Nc1c(Cl)cccc1Cl [Diclofenac potassium]

>  <Effect of ↑ pH on solubility>
↑

$$$$

GET /value?item= C[C@@H]1C[C@H]2[C@@H]3CCC4=CC(=O)C=C[C@]4(C)[C@@]3(F)[C@@H](O)C[C@]2(C)[C@@]1(O)C(=O)CO [Dexamethasone] &field=Effect of ↑ pH on solubility returns ⇄

GET /value?item= CC(=O)Nc1ccc(O)cc1 [Paracetamol] &field=Effect of ↑ pH on solubility returns ⇄

----------
Each item that follows carries a reported % dissolved in 900 mL 0.0033 N HCl.
assay: Dissolution, USP dissolution apparatus 2, 900 mL 0.0033 N hydrochloric acid, 30 rpm, 37° C.; type: physicochemical; conditions: basic and amphoteric drugs in formulations according to the invention (Table 32); 30 minutes; 30 rpm (increased to 250 rpm after 20 minutes)
Structures can show the parent of a compound that is named as a salt.
Report the figure in % without appending any unit label.

Please review the following examples before continuing.
>  <COMPOUND>
CN(C)CCc1c[nH]c2ccc(C[C@H]3COC(=O)N3)cc12 [Zolmitriptan]

>  <MEASUREMENT KIND>
% dissolved in 900 mL 0.0033 N HCl

>  <RESULT UNIT>
%

>  <MEASUREMENT>
98

$$$$
>  <COMPOUND>
Cc1ccc(-c2nc3ccc(C)cn3c2CC(=O)N(C)C)cc1 [Zolpidem tartrate]

>  <MEASUREMENT KIND>
% dissolved in 900 mL 0.0033 N HCl

>  <RESULT UNIT>
%

>  <MEASUREMENT>
98

$$$$
>  <COMPOUND>
CN(C)CCc1c[nH]c2ccc(Cn3cncn3)cc12 [Rizatriptan benzoate]

>  <MEASUREMENT KIND>
% dissolved in 900 mL 0.0033 N HCl

>  <RESULT UNIT>
%

>  <MEASUREMENT>
97

$$$$
>  <COMPOUND>
CCN(CC)CCNC(=O)c1cc(Cl)c(N)cc1OC [Metoclopramide hydrochloride]

>  <MEASUREMENT KIND>
% dissolved in 900 mL 0.0033 N HCl

>  <RESULT UNIT>
%

>  <MEASUREMENT>
100

$$$$
>  <COMPOUND>
Cc1nccn1CC1CCc2c(c3ccccc3n2C)C1=O (stereo not shown) [Ondansetron hydrochloride]

>  <MEASUREMENT KIND>
% dissolved in 900 mL 0.0033 N HCl

>  <RESULT UNIT>
%

>  <MEASUREMENT>
100

$$$$

GET /value?item= O=C1Nc2ccc(Cl)cc2C(c2ccccc2Cl)=NC1O (stereo not shown) [Lorazepam] &field=% dissolved in 900 mL 0.0033 N HCl returns 100

GET /value?item= CN1CCC[C@@H]1Cc1c[nH]c2ccc(CCS(=O)(=O)c3ccccc3)cc12 [Eletriptan hydrochloride, Eletriptan hydrobromide] &field=% dissolved in 900 mL 0.0033 N HCl returns 99

GET /value?item= CN(C)C(=O)C(CCN1CCC(O)(c2ccc(Cl)cc2)CC1)(c1ccccc1)c1ccccc1 [Loperamide hydrochloride] &field=% dissolved in 900 mL 0.0033 N HCl returns 100

GET /value?item= COc1cccc(C2(O)CCCCC2CN(C)C)c1 (stereo not shown) [Tramadol hydrochloride] &field=% dissolved in 900 mL 0.0033 N HCl returns 100

GET /value?item= Cc1nnc2n1-c1ccc(Cl)cc1C(c1ccccc1)=NC2 [Alprazolam] &field=% dissolved in 900 mL 0.0033 N HCl returns 100
